Literature compilation of pKi measurements on Muscarinic acetylcholine receptor M5 (Homo sapiens, UniProt P08912).
# TARGET_OR_SYSTEM: Muscarinic acetylcholine receptor M5 (Homo sapiens, UniProt P08912)
# Sequence (P08912 whole entry): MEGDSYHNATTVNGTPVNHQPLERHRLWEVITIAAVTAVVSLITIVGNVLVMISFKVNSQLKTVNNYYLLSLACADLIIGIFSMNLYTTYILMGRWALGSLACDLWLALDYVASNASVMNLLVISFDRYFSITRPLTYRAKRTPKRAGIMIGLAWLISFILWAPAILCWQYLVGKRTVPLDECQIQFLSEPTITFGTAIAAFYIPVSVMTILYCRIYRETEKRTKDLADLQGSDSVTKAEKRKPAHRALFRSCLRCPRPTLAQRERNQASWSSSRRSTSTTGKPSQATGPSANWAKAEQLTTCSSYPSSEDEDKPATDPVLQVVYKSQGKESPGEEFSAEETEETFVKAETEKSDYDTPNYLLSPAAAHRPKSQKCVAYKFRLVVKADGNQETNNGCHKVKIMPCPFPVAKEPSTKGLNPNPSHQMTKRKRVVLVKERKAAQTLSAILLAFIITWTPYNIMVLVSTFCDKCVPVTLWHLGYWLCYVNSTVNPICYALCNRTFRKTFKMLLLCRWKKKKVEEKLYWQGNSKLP
Just so you know, pKi here is -log10 of the concentration in molar units; reply with that number alone.

Check out these entries, answers already filled in.
INSERT INTO results (molecule, measured_result) VALUES
  ('O=C(CCCNC(=O)CC(c1ccccc1)(c1ccccc1)c1ccccc1)NCCC(=O)NCC1CCCN(CC2CCCCC2)C1 (stereo not given)', 6.70),
  ('OC(CCCN1CCN(CCCC(O)(c2ccccc2)c2ccccc2)CC1)(c1ccccc1)c1ccccc1', 4.63),
  ('CCCCCC1CCN(CCCN2C(=O)CCc3ccccc32)CC1', 5.45);

# evaluate next
pKi reading for C[N+]1(C)CCC[C@@H]1[C@@H]1C[S+]([O-])[C@@](c2ccccc2)(C2CCCCC2)O1.[I-] (stereo in doubt; (+)-15) : 6.65
